target: Cytochrome P450 2C9 (Homo sapiens) (UniProt P11712); experiment: blockers of cytochrome P450 2C9 activity – biochemical, luminescence, ADME assay, primary screen (AID 777); conditions: CYP2C9 Supersomes, luciferin-H conversion, at 5 µM, stronger effect = higher value
Sequence (P11712 whole entry, looked up): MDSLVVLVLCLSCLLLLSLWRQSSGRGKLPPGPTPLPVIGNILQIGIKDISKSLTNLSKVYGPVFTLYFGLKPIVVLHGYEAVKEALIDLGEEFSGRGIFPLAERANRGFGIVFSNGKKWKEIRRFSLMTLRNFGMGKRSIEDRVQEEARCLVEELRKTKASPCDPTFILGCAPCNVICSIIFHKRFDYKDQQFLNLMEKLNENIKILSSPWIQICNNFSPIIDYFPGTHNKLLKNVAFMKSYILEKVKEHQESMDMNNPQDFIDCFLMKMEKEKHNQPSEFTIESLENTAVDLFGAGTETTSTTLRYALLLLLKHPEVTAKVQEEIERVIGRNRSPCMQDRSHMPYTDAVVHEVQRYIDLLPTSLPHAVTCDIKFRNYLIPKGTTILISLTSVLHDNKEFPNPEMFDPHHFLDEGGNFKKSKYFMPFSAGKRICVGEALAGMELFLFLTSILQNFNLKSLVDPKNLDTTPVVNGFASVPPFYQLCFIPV
About 19,000 (20%) of roughly 96,000 compounds were called active. A selection follows.
result type: inhibition

INSERT INTO results (compound, observed_measurement) VALUES
  ('COc1ccccc1N1CCN(C(=O)CSc2nnc(-c3ccoc3C)o2)CC1', '25.8% (inactive)'),
  ('Cc1nnc(SCC(=O)NC(=O)NC2CCCC2)n1N', '3.3% (inactive)'),
  ('CN1CCN(S(=O)(=O)c2ccc(NC(=O)C3CCCO3)cc2)CC1 (stereo unspecified)', '60% (active)'),
  ('O=C(CSc1ncccn1)NC(=O)NCc1ccccc1', '5.8% (inactive)'),
  ('CC1C(c2ccccc2)=[N+]([O-])C2(CCCC2)N1O (stereo unspecified)', '37.7% (inactive)'),
  ('CCCCn1c(SCc2ncc(-c3ccccc3)o2)nc2cc(S(N)(=O)=O)ccc21', '54.5% (active)'),
  ('c1ccc(Nc2nc(N3CCOCC3)c3ccccc3n2)cc1', '56.9% (active)'),
  ('COc1ccccc1N1CCN(C(=O)c2c(-c3c(Cl)cccc3Cl)noc2C)CC1', '88% (active)'),
  ('CC1(C)CC(CC(=O)O)C(=O)O1 (stereo unspecified)', '4.1% (inactive)'),
  ('Cc1ccc2nc(-c3ccc(SCC(=O)Nc4cc(C)on4)nc3)[nH]c2c1', '2.6% (inactive)'),
  ('Cc1cc(Oc2ccccc2)nc(N2CCOCC2)n1', '26.5% (inactive)');

====

target: Cytochrome P450 2C9 (Homo sapiens); experiment: blockers of cytochrome P450 2C9 activity – biochemical, luminescence, ADME assay, primary screen (AID 777); settings: CYP2C9 Supersomes, luciferin-H conversion, at 5 µM
The whole screen tested about 96,000 compounds, of which about 19,000 (20%) were called active.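 The calls were made as follows: active = blocking of liver enzyme CYP2C9 beyond about 50% at 5 µM (limit read from the data); inactive = the rest.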 The list is a sample of the results.
Outcome codes: active, inactive

INSERT INTO measurements (compound, assigned_class) VALUES
  ('CC1=C(C(=O)Nc2ccccc2)C(c2cccs2)C(C#N)=C(SCC#N)N1 (stereo unspecified)', 'active'),
  ('COc1ccccc1N=C1SC(C)CN1C(=O)C1CCC1 (stereo unspecified)', 'inactive'),
  ('Cc1ccc(S(=O)(=O)NC(C)C(=O)Nc2ccccc2C(=O)N2CCCC2)cc1 (stereo unspecified)', 'inactive'),
  ('CCCSC1=C(C#N)C(c2ccccc2C)C(C(=O)OC)C(=O)N1 (stereo unspecified)', 'inactive'),
  ('CCNC(=O)c1c(O)c2cccc3c2n(c1=O)CC3', 'inactive'),
  ('Cc1nn(-c2ccccc2)c2[nH]c(C(F)(F)F)cc(=O)c12', 'inactive');

====

# key: entry, value: inhibition
molecular target: Cytochrome P450 2C9 (Homo sapiens) (UniProt P11712); test: blockers of cytochrome P450 2C9 activity – biochemical, luminescence, ADME assay, primary screen (AID 777); details: CYP2C9 Supersomes, luciferin-H conversion, at 5 µM, stronger effect = higher value
Hit rate of the full screen: of about 96,000 compounds, about 19,000 (20%) were called active. A selection follows.
result type: inhibition (%)

INSERT INTO assay_data (molecule, assay_system, observed_measurement) VALUES
  ('COC(=O)c1sccc1NC(=O)c1cc(OC)c(OC)c(OC)c1', 'Cytochrome P450 2C9 (Homo sapiens) (UniProt P11712)', 7.6),
  ('O=C(NCc1ccco1)c1nc(-c2ccccc2)n(-c2ccccc2)n1', 'Cytochrome P450 2C9 (Homo sapiens) (UniProt P11712)', 51.3),
  ('O=C(c1cccc(S(=O)(=O)N2CCOCC2)c1)N1CCOCC1', 'Cytochrome P450 2C9 (Homo sapiens) (UniProt P11712)', -6.1),
  ('Cc1cc(NC(=O)COC(=O)c2ccc(F)c(S(=O)(=O)N3CCOCC3)c2)no1', 'Cytochrome P450 2C9 (Homo sapiens) (UniProt P11712)', -0.2),
  ('Cc1ccc(N(CC(O)CN2CCCC2)S(=O)(=O)c2ccccc2)cc1 (stereo not given)', 'Cytochrome P450 2C9 (Homo sapiens) (UniProt P11712)', 27.2),
  ('O=C(Nc1cccc2ncccc12)c1ccc(-c2ccc(Cl)cc2Cl)o1', 'Cytochrome P450 2C9 (Homo sapiens) (UniProt P11712)', 5.6),
  ('O=C(CC12CC3CC(CC(C3)C1)C2)Nc1ccc2c(c1)COC2=O', 'Cytochrome P450 2C9 (Homo sapiens) (UniProt P11712)', -0.2),
  ('COc1ccc(OCC(=O)NNC(=O)c2ccc(-c3ccccc3)cc2)cc1', 'Cytochrome P450 2C9 (Homo sapiens) (UniProt P11712)', -3.2),
  ('COc1ccccc1NC(=O)COc1ccc(C(=O)OCC(=O)N(C(C)C)C(C)C)cc1OC', 'Cytochrome P450 2C9 (Homo sapiens) (UniProt P11712)', 37.6),
  ('CC1CN(c2cc(=O)n(Cc3ccc(F)cc3)c(=O)[nH]2)CC(C)O1 (stereo not given)', 'Cytochrome P450 2C9 (Homo sapiens) (UniProt P11712)', -11),
  ('CC(C)C(=O)Nc1ccc2c(c1)oc1ccccc12', 'Cytochrome P450 2C9 (Homo sapiens) (UniProt P11712)', 1.8),
  ('O=C(OCC(=O)N1CCCC1)c1ccco1', 'Cytochrome P450 2C9 (Homo sapiens) (UniProt P11712)', 5.6),
  ('O=c1c2ccccc2nc2n1C(CSCc1ccccc1)CS2 (stereo not given)', 'Cytochrome P450 2C9 (Homo sapiens) (UniProt P11712)', 14.7),
  ('O=C(CN1C(=O)C2C3C=CC(C3)C2C1=O)NCCc1ccccc1Cl (stereo not given)', 'Cytochrome P450 2C9 (Homo sapiens) (UniProt P11712)', 17.1),
  ('CCN(CC)CCCNC(=O)CCc1ccccc1', 'Cytochrome P450 2C9 (Homo sapiens) (UniProt P11712)', 1.4),
  ('CC1CCCCC1NC(=O)C1CCCN1S(=O)(=O)c1cccc2nsnc12 (stereo not given)', 'Cytochrome P450 2C9 (Homo sapiens) (UniProt P11712)', 21.2),
  ('CCOC(=O)c1csc(NC(=O)c2ccc(S(=O)(=O)N3CCCC3)cc2)n1', 'Cytochrome P450 2C9 (Homo sapiens) (UniProt P11712)', -12.7),
  ('COc1ccc(C(=O)Nc2nc(-c3ccc(S(=O)(=O)N4CCOCC4)cc3)cs2)cc1', 'Cytochrome P450 2C9 (Homo sapiens) (UniProt P11712)', 62.5),
  ('CCCCc1nc2c(=O)[nH]c3ccccc3c2o1', 'Cytochrome P450 2C9 (Homo sapiens) (UniProt P11712)', -4.4),
  ('CC(C)C(NC(=O)c1cccc(S(=O)(=O)N2CCOCC2)c1)C(=O)NCCc1ccccn1 (stereo not given)', 'Cytochrome P450 2C9 (Homo sapiens) (UniProt P11712)', -17.7),
  ('N#C/C(=C(/O)Cc1cccc2ccccc12)c1nc2ccccc2s1', 'Cytochrome P450 2C9 (Homo sapiens) (UniProt P11712)', 76.6),
  ('Cc1ccc(N2C(=O)S/C(=C/c3cn(C)c4ccccc34)C2=O)cc1', 'Cytochrome P450 2C9 (Homo sapiens) (UniProt P11712)', -33.6),
  ('O=C(O)C1CCCN(S(=O)(=O)c2cccc3cccnc23)C1 (stereo not given)', 'Cytochrome P450 2C9 (Homo sapiens) (UniProt P11712)', -20.2),
  ('COc1ccc(NC(=O)C2CCCN(S(=O)(=O)c3cccc4cccnc34)C2)cc1 (stereo not given)', 'Cytochrome P450 2C9 (Homo sapiens) (UniProt P11712)', -49.2),
  ('Cc1cc(C(=O)OCC(=O)c2c(N)n(C)c(=O)n(C)c2=O)c(C)o1', 'Cytochrome P450 2C9 (Homo sapiens) (UniProt P11712)', 15.9),
  ('CCOc1ccc(-c2nnn(CC(=O)N3CCN(c4ccc(F)cc4)CC3)n2)cc1OCC', 'Cytochrome P450 2C9 (Homo sapiens) (UniProt P11712)', -6.1),
  ('O=C(Nc1ccccc1-c1nnn(CC(=O)N2CCN(c3ccccc3)CC2)n1)c1cccs1', 'Cytochrome P450 2C9 (Homo sapiens) (UniProt P11712)', 80.1),
  ('O=C(O)CCSc1nnc(-c2ccccc2)n1-c1ccccc1', 'Cytochrome P450 2C9 (Homo sapiens) (UniProt P11712)', -14.5),
  ('Fc1ccc(CNc2nc3ccccc3n3nnnc23)cc1', 'Cytochrome P450 2C9 (Homo sapiens) (UniProt P11712)', 11.6),
  ('Cc1ccc(Nc2nc(C)cc(C)c2C(N)=O)cc1', 'Cytochrome P450 2C9 (Homo sapiens) (UniProt P11712)', 6.2),
  ('COc1ccc(C(=O)N2CCC(C(=O)Nc3cccc(C)c3)CC2)cc1OC', 'Cytochrome P450 2C9 (Homo sapiens) (UniProt P11712)', 8.3),
  ('CCC(C)OC(=O)C(C)Oc1ccc(-c2ccccc2)cc1 (stereo not given)', 'Cytochrome P450 2C9 (Homo sapiens) (UniProt P11712)', 79.9),
  ('COc1ccc(Br)cc1CN1CCN(C(=O)c2cccc(OC)c2OC)CC1', 'Cytochrome P450 2C9 (Homo sapiens) (UniProt P11712)', 52.9),
  ('COC(=O)c1sccc1N/N=C(\C)c1ccc(F)c(Cl)c1', 'Cytochrome P450 2C9 (Homo sapiens) (UniProt P11712)', 9.3),
  ('COc1ccccc1N1CCN(C(=O)Cn2nnc(-c3cccs3)n2)CC1', 'Cytochrome P450 2C9 (Homo sapiens) (UniProt P11712)', 47.2),
  ('Cc1cccc(N(CC(O)CN(C)C)S(=O)(=O)c2ccccc2)c1 (stereo not given)', 'Cytochrome P450 2C9 (Homo sapiens) (UniProt P11712)', 7.4),
  ('Cc1ccc(NC(=O)CS(=O)CC(=O)N(c2ccccc2)C(C)C(=O)NC2CCCC2)cc1 (stereo not given)', 'Cytochrome P450 2C9 (Homo sapiens) (UniProt P11712)', 77.9),
  ('O=C(NCc1ccco1)c1nc2ncccn2n1', 'Cytochrome P450 2C9 (Homo sapiens) (UniProt P11712)', -9.7),
  ('CC(=O)c1cccc(NC(=O)N2CCCC2C(=O)NCCC(C)C)c1 (stereo not given)', 'Cytochrome P450 2C9 (Homo sapiens) (UniProt P11712)', 9.2),
  ('O=C(CNC(=O)c1ccco1)OCC(=O)c1ccccc1', 'Cytochrome P450 2C9 (Homo sapiens) (UniProt P11712)', -2.5),
  ('O=C(Cc1ccccc1)n1nc(-c2ccccc2)nc1NCc1ccco1', 'Cytochrome P450 2C9 (Homo sapiens) (UniProt P11712)', 8.8),
  ('Cc1cc(-c2cccs2)nc(-n2cccc2)n1', 'Cytochrome P450 2C9 (Homo sapiens) (UniProt P11712)', 12.1),
  ('CC(Oc1ccc(Cl)cc1)C(=O)OCC(=O)Nc1ncc(Cl)cc1Cl (stereo not given)', 'Cytochrome P450 2C9 (Homo sapiens) (UniProt P11712)', -20.7),
  ('CCN(CC)c1ccc(C(=O)OCC(=O)c2ccco2)cc1', 'Cytochrome P450 2C9 (Homo sapiens) (UniProt P11712)', -26.4),
  ('CCN(Cc1ccncc1)C(=O)c1cccc(S(=O)(=O)N2CCOCC2)c1', 'Cytochrome P450 2C9 (Homo sapiens) (UniProt P11712)', 94.8);
